# Procedure summary: Cmax in Sprague-Dawley rat at 0.3 mg/kg, po qd administered via gavage measured on day 1 by LC-MS/MS analysis
# Format: ADME, organism-based
# Parameters: dose 0.3 mg/kg, route oral
# Setup conditions: in vivo
Property measured: Cmax (nM)
Numbers only, in nM.

Request: Look up Cmax: O=C(O)c1cc(F)c2nc(N3C4CCC3CC(OCc3c(-c5ccccc5OC(F)(F)F)noc3C3CC3)C4)sc2c1 (stereo unspecified)
Result: 13.5

----------
# Procedure summary: AUC (0 to 24 hrs) in Sprague-Dawley rat at 0.03 mg/kg, po qd administered via gavage measured on day 1 by LC-MS/MS analysis
# Type: ADME, organism-based
# Design: time < 24 hr, dose 0.03 mg/kg, route oral
# Setup conditions: in vivo
Property measured: AUC(0-t) at 24 h (µM·h)
Answers are plain numbers, in µM·h.

Request: Look up AUC(0-t) at 24 h: O=C(O)c1cc(F)c2nc(N3C4CCC3CC(OCc3c(-c5ccccc5OC(F)(F)F)noc3C3CC3)C4)sc2c1 (stereo unspecified)
Result: 0.015

----------
# Procedure summary: Drug uptake in Sprague-Dawley rat liver at 0.01 mg/kg, po qd administered via gavage measured 7 hrs post last dose on day 14 by LC-MS/MS analysis
# Type: ADME, organism-based
# Setup conditions: read-out: Drug uptake
Property measured: concentration at 7 h (nM)
Answers are plain numbers, in nM.

Request: Look up concentration at 7 h: O=C(O)c1cc(F)c2nc(N3C4CCC3CC(OCc3c(-c5ccccc5OC(F)(F)F)noc3C3CC3)C4)sc2c1 (stereo unspecified)
Result: 5.18

----------
# Procedure summary: Drug uptake in Sprague-Dawley rat liver at 0.3 mg/kg, po qd administered via gavage measured 1 hr post last dose on day 14 by LC-MS/MS analysis
# Format: ADME, organism-based
# Setup conditions: read-out: Drug uptake
Property measured: concentration at 1 h
Quick note: unit goes after the number.

Request: Look up concentration at 1 h: O=C(O)c1cc(F)c2nc(N3C4CCC3CC(OCc3c(-c5ccccc5OC(F)(F)F)noc3C3CC3)C4)sc2c1 (stereo unspecified)
Result: 84.5 nM

----------
# Procedure summary: AUC (0 to 24 hrs) in Sprague-Dawley rat at 0.1 mg/kg, po qd administered via gavage measured on day 11 by LC-MS/MS analysis
# Assay type: ADME, organism-based
# Design: time < 24 hr, dose 0.1 mg/kg, route oral
# Setup conditions: in vivo
Property measured: AUC at 24 h (µM·h)
Answers are plain numbers, in µM·h.

Request: Look up AUC at 24 h: O=C(O)c1cc(F)c2nc(N3C4CCC3CC(OCc3c(-c5ccccc5OC(F)(F)F)noc3C3CC3)C4)sc2c1 (stereo unspecified)
Result: 0.08

----------
# Procedure summary: AUC in rat at 1 mg/kg, po administered via gavage by LC-MS/MS analysis
# Assay type: ADME, organism-based
# Setup conditions: in vivo
Property measured: AUC (µM·h)
Give bare numbers, in µM·h.

Request: Look up AUC: O=C(O)c1cc(F)c2nc(N3C4CCC3CC(OCc3c(-c5ccccc5OC(F)(F)F)noc3C3CC3)C4)sc2c1 (stereo unspecified)
Result: 0.307

----------
# Procedure summary: Drug uptake in Sprague-Dawley rat liver at 1 mg/kg, po qd administered via gavage measured 1 hr post last dose on day 14 by LC-MS/MS analysis
# Type: ADME, organism-based
# Setup conditions: read-out: Drug uptake
Property measured: concentration at 1 h (nM)
One number for each entry, in nM.

Request: Look up concentration at 1 h: O=C(O)c1cc(F)c2nc(N3C4CCC3CC(OCc3c(-c5ccccc5OC(F)(F)F)noc3C3CC3)C4)sc2c1 (stereo unspecified)
Result: 159

----------
# Procedure summary: Terminal half life in rat at 3 mg/kg, iv by LC-MS/MS analysis
# Assay type: ADME, organism-based
# Setup conditions: in vivo, read-out: beta t1/2 (converted)
Rule: half-life under 2 h gives rule not met, otherwise rule met.

Before answering, review these 5 worked examples.
Molecule | Group
O=C(O)c1ccc2nc(N3CCC(OCc4c(-c5ccccc5OC(F)(F)F)noc4C4CC4)CC3)sc2c1 | rule not met
O=C(O)c1ccc2nc(N3CCC(OCc4c(-c5c(Cl)cccc5Cl)noc4C4CC4)CC3)sc2c1 | rule not met
O=C(O)c1cc(F)c2nc(N3C4CCC3CC(OCc3c(-c5ccccc5C(F)(F)F)noc3C3CC3)C4)sc2c1 (stereo not drawn) | rule not met
O=C(O)c1ccc2nc(N3C4CCC3CC(OCc3c(-c5ccccc5OC(F)(F)F)noc3C3CC3)C4)sc2c1 (stereo not drawn) | rule not met
COc1cc(C(=O)O)cc2sc(N3C4CCC3CC(OCc3c(-c5ccccc5OC(F)(F)F)noc3C3CC3)C4)nc12 (stereo not drawn) | rule not met

Request: Record O=C(O)c1cc(F)c2nc(N3C4CCC3CC(OCc3c(-c5ccccc5OC(F)F)noc3C3CC3)C4)sc2c1 (stereo not drawn) ; criterion: half-life no lower than 2 h. Met?
Result: rule met

Request: Would you mind doing Cc1cc(C(=O)O)cc2sc(N3C4CCC3CC(OCc3c(-c5ccccc5OC(F)(F)F)noc3C3CC3)C4)nc12 (stereo not drawn) as well?
Result: rule not met

Request: Would you mind doing O=C(O)c1cc(F)c2nc(N3C4CCC3CC(OCc3c(-c5ccccc5OC(F)(F)F)noc3C3CC3)C4)sc2c1 (stereo not drawn) as well?
Result: rule met

----------
# Procedure summary: Cmax in Sprague-Dawley rat at 0.003 mg/kg, po qd administered via gavage measured on day 1 by LC-MS/MS analysis
# Format: ADME, organism-based
# Set-up: dose 0.003 mg/kg, route oral
# Setup conditions: in vivo
Property measured: Cmax (nM)
Answers are plain numbers, in nM.

Request: Look up Cmax: O=C(O)c1cc(F)c2nc(N3C4CCC3CC(OCc3c(-c5ccccc5OC(F)(F)F)noc3C3CC3)C4)sc2c1 (stereo unspecified)
Result: 0.15

----------
# Procedure summary: Volume of distribution at steady state in rat at 3 mg/kg, iv by LC-MS/MS analysis
# Type: ADME, organism-based
# Setup conditions: in vivo, read-out: Vdss
Task for the reader: assign each of the following compounds its reported Vd.
Answers are plain numbers, in L/kg.

# count of solved cases: 3
Compound | Property measured | Output unit | Recorded measurement
O=C(O)c1ccc2nc(N3CCC(OCc4c(-c5ccccc5OC(F)(F)F)noc4C4CC4)CC3)sc2c1 | Vd | L/kg | 1.2
O=C(O)c1cc(F)c2nc(N3C4CCC3CC(OCc3c(-c5ccccc5OC(F)F)noc3C3CC3)C4)sc2c1 (stereo not drawn) | Vd | L/kg | 0.7
O=C(O)c1cc(F)c2nc(N3C4CCC3CC(OCc3c(-c5ccccc5C(F)(F)F)noc3C3CC3)C4)sc2c1 (stereo not drawn) | Vd | L/kg | 0.6

Please supply Vd for each of the following items, keeping them in order.
1. O=C(O)c1ccc2nc(N3C4CCC3CC(OCc3c(-c5ccccc5OC(F)(F)F)noc3C3CC3)C4)sc2c1 (stereo not drawn)
2. COc1cc(C(=O)O)cc2sc(N3C4CCC3CC(OCc3c(-c5ccccc5OC(F)(F)F)noc3C3CC3)C4)nc12 (stereo not drawn)
3. O=C(O)c1cc(F)c2nc(N3C4CCC3CC(OCc3c(-c5ccccc5OC(F)(F)F)noc3C3CC3)C4)sc2c1 (stereo not drawn)
4. Cc1cc(C(=O)O)cc2sc(N3C4CCC3CC(OCc3c(-c5ccccc5OC(F)(F)F)noc3C3CC3)C4)nc12 (stereo not drawn)
5. O=C(O)c1ccc2nc(N3CCC(OCc4c(-c5c(Cl)cccc5Cl)noc4C4CC4)CC3)sc2c1

Result:
[1.1, 0.26, 0.72, 0.84, 0.55]

----------
# Procedure summary: Drug uptake in Sprague-Dawley rat plasma at 3 mg/kg, po qd administered via gavage measured 7 hrs post last dose on day 14 by LC-MS/MS analysis
# Assay type: ADME, organism-based
Property measured: concentration at 7 h
Quick note: unit goes after the number.

Request: Look up concentration at 7 h: O=C(O)c1cc(F)c2nc(N3C4CCC3CC(OCc3c(-c5ccccc5OC(F)(F)F)noc3C3CC3)C4)sc2c1 (stereo unspecified)
Result: 115 nM

----------
# Procedure summary: Half life in dog at 0.5 mg/kg, iv by LC-MS/MS analysis
# Type: ADME, organism-based, Canis lupus familiaris
# Setup conditions: in vivo
Property measured: half-life (h)
One number for each entry, in h.

Request: Look up half-life: O=C(O)c1cc(F)c2nc(N3C4CCC3CC(OCc3c(-c5ccccc5OC(F)(F)F)noc3C3CC3)C4)sc2c1 (stereo unspecified)
Result: 7.4

----------
# Procedure summary: AUC (0 to 24 hrs) in Sprague-Dawley rat at 0.01 mg/kg, po qd administered via gavage measured on day 1 by LC-MS/MS analysis
# Assay type: ADME, organism-based
# Design: dose 0.01 mg/kg, time < 24 hr, route oral
# Setup conditions: in vivo
Property measured: AUC(0-t) at 24 h (nM·h)
One number for each entry, in nM·h.

Request: Look up AUC(0-t) at 24 h: O=C(O)c1cc(F)c2nc(N3C4CCC3CC(OCc3c(-c5ccccc5OC(F)(F)F)noc3C3CC3)C4)sc2c1 (stereo unspecified)
Result: 4
